Target: KIX (Mus musculus, UniProt P45481)
Construct: The DNA fragment of KIX (residues 586–672 of mouse CBP); 6xHis-tag with thrombin cleavage site (N); made in house; host or cells: E. coli BL21(DE3)pLysS
Sequence (P45481 586-672): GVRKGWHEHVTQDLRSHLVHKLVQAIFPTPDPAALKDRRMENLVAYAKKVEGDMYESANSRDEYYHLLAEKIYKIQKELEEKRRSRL
Test: KIX binding by isothermal titration calorimetry (ITC)
Conditions: entropy term upon KIX binding, 30 °C, pH 7.0, ΔS=(ΔH-ΔG)/T, mean ± standard error of triplicate or more
Where no end group is shown, it is not given here.
Each entry below carries its reported − TΔS.

Substance	− TΔS, kcal/mol
T2857K: T2857K mutant of the MLL TAD peptide ({His6-GB1}-GNILPSDIMDFVLKNKPSMQALGESPESY)	4.4
T2857R: T2857R mutant of the MLL TAD peptide ({His6-GB1}-GNILPSDIMDFVLKNRPSMQALGESPESY)	4.9
T2857A: T2857A mutant of the MLL TAD peptide (GNILPSDIMDFVLKNAPSMQALGESPESY; left off: His6, N-terminal, cleaved | GB1 (B1 domain of Streptococcal protein G), N-terminal, cleaved)	4.0

* * *

Target: KIX (Mus musculus)
Construct: The DNA fragment of KIX (residues 586–672 of mouse CBP); 6xHis-tag with thrombin cleavage site (N); made in house; host or cells: E. coli BL21(DE3)pLysS
Assay: KIX binding by isothermal titration calorimetry (ITC)
Details: entropy term upon KIX binding, 30 °C, pH 7.0, ΔS=(ΔH-ΔG)/T, mean ± standard error of triplicate or more
Where no end group is shown, it is not given here.
Each entry below carries its recorded − TΔS.

| Substance | − TΔS, kcal/mol |
| --- | --- |
| K2855R / T2857L: K2855R/T2857L double mutant of the MLL TAD peptide ({His6-GB1}-GNILPSDIMDFVLRNLPSMQALGESPESY) | 1.5 |
| T2857L: T2857L mutant of the MLL TAD peptide ({His6-GB1}-GNILPSDIMDFVLKNLPSMQALGESPESY) | 2.6 |
| T2857W: T2857W mutant of the MLL TAD peptide, highest KIX affinity ({His6-GB1}-GNILPSDIMDFVLKNWPSMQALGESPESY) | 4.4 |

* * *

Target: KIX (Mus musculus, UniProt P45481)
Construct: The DNA fragment of KIX (residues 586–672 of mouse CBP); 6xHis-tag with thrombin cleavage site (N); made in house; host or cells: E. coli BL21(DE3)pLysS
Assay: KIX binding by isothermal titration calorimetry (ITC)
Conditions: entropy term upon KIX binding, 30 °C, pH 7.0, ΔS=(ΔH-ΔG)/T, mean ± standard error of triplicate or more
Where no end group is shown, it is not given here.
− TΔS values for the substances below.
Quantity measured: − TΔS (kcal/mol)

Substance	Assay system	Quantity measured	Recorded number
T2857Y: T2857Y mutant of the MLL TAD peptide ({His6-GB1}-GNILPSDIMDFVLKNYPSMQALGESPESY)	KIX (Mus musculus, UniProt P45481)	− TΔS	4.5
T2857F: T2857F mutant of the MLL TAD peptide (GNILPSDIMDFVLKNFPSMQALGESPESY; left off: His6, N-terminal, cleaved | GB1 (B1 domain of Streptococcal protein G), N-terminal, cleaved)	KIX (Mus musculus, UniProt P45481)	− TΔS	3.2
K2855R / T2857W: K2855R/T2857W double mutant of the MLL TAD peptide ({His6-GB1}-GNILPSDIMDFVLRNWPSMQALGESPESY)	KIX (Mus musculus, UniProt P45481)	− TΔS	3.86

These data points were gathered from paper PMC10113271.
